- testedOn: GLP-1R in a pancreatic insulinoma cell line (EndoC-PH1) (Homo sapiens, UniProt P43220)
- Sequence (P43220 24-463): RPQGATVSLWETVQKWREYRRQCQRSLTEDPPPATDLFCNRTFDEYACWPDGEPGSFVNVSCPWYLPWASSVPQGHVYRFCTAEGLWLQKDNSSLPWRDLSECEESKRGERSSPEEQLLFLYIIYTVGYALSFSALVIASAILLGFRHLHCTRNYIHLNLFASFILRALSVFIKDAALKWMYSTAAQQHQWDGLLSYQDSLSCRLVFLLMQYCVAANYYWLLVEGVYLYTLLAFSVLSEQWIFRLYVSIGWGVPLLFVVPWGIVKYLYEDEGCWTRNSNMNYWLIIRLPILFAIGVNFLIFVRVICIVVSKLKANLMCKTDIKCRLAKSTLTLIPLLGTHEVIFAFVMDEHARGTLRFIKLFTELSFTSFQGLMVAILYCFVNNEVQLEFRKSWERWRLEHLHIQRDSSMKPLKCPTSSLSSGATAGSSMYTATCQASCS
- testName: EndoC cAMP Accumulation Assay (HTRF)
- conditionNotes: EndoC-PH1 human pancreatic beta cell line, endogenous GLP-1R, 30 min at rt
# label = bin(measured EC50), where bins are LOW = under 7 nM, MID = from 7 nM up to 50 nM, HIGH = 50 nM and over

Input: Entry COc1cc(C(=O)O)cc2c1nc(CN1CCN(c3cccc4c3O[C@@](C)(c3ccc(Cl)cn3)O4)[C@@H]3CC[C@@H]31)n2C[C@@H]1CCCO1 (relative stereo) [Example 8b] belongs to which category?
Output: HIGH

Input: Entry COc1cc(C(=O)O)cc2c1nc(CN1CCN(c3cccc4c3O[C@@](C)(c3ccc(Cl)cn3)O4)[C@H]3CC[C@@H]31)n2CC1(C#N)CC1 (single isomer, unassigned) [Example 25b] belongs to which category?
Output: MID

Input: Entry C[C@]1(c2ccc(Cl)cc2F)Oc2cccc(N3CCN(Cc4nc5ccc(C(=O)O)cc5n4C[C@@H]4CCO4)[C@H]4CC[C@@H]43)c2O1 (single isomer, unassigned) [Example 21a] belongs to which category?
Output: MID

Input: Entry COc1cc(C(=O)O)cc2c1nc(CN1CCN(c3cccc4c3O[C@@](C)(c3ccc(Cl)cn3)O4)[C@H]3CC[C@@H]31)n2CC1(C#N)CC1 (single isomer, unassigned) [Example 25a] belongs to which category?
Output: HIGH

Input: Entry C[C@]1(c2ccc(Cl)cn2)Oc2cccc(N3CCN(Cc4nc5c(F)cc(C(=O)O)cc5n4CC4(C#N)CC4)[C@H]4CC[C@@H]43)c2O1 (single isomer, unassigned) [Example 24b] belongs to which category?
Output: MID

Input: Entry C[C@]1(c2ccc(Cl)cn2)Oc2cccc(N3CCN(Cc4nc5c(F)cc(C(=O)O)cc5n4CC4(CC#N)CC4)[C@H]4CC[C@@H]43)c2O1 (single isomer, unassigned) [Example 23a] belongs to which category?
Output: LOW

Input: Entry C[C@]1(c2ccc(Cl)cc2F)Oc2cccc(N3CCN(Cc4nc5c(F)cc(C(=O)O)cc5n4C[C@@H]4CCO4)[C@H]4CC[C@H]43)c2O1 (single isomer, unassigned) [Example 9b] belongs to which category?
Output: LOW

Input: Entry CCn1ccnc1Cn1c(CN2CCN(c3cccc4c3O[C@@](C)(c3ccc(Cl)cn3)O4)[C@H]3CC[C@@H]32)nc2c(Cl)cc(C(=O)O)cc21 (single isomer, unassigned) [Example 10a] belongs to which category?
Output: LOW

Input: Entry C[C@]1(c2ccc(Cl)cn2)Oc2cccc(N3CCN(Cc4nc5c(Cl)cc(C(=O)O)cc5n4CC4(CC#N)CC4)[C@H]4CC[C@@H]43)c2O1 (single isomer, unassigned) [Example 26c] belongs to which category?
Output: HIGH

Input: Entry COc1cc(C(=O)O)cc2c1nc(CN1CCN(c3cccc4c3O[C@@](C)(c3ccc(Cl)cn3)O4)[C@@H]3CC[C@@H]31)n2C[C@@H]1CCCO1 (single isomer, unassigned) [Example 8a] belongs to which category?
Output: LOW

Input: Entry C[C@]1(c2ccc(Cl)cn2)Oc2cccc(N3CCN(Cc4nc5c(F)cc(C(=O)O)cc5n4C[C@@H]4CCO4)[C@H]4CC[C@H]43)c2O1 (single isomer, unassigned) [Example 1b] belongs to which category?
Output: LOW

Input: Entry C[C@]1(c2ccc(Cl)cn2)Oc2cccc(N3CCN(Cc4nc5c(Cl)cc(C(=O)O)cc5n4C[C@@H]4CCO4)[C@H]4CC[C@H]43)c2O1 (single isomer, unassigned) [Example 20d] belongs to which category?
Output: LOW

Input: Entry COc1cc(C(=O)O)cc2c1nc(CN1CCN(c3cccc4c3O[C@@](C)(c3ccc(Cl)cn3)O4)[C@@H]3CC[C@@H]31)n2C[C@@H]1CCCO1 (single isomer, unassigned) [Example 8d] belongs to which category?
Output: HIGH

Input: Entry COc1cc(C(=O)O)cc2c1nc(CN1CCN(c3cccc4c3O[C@@](C)(c3ccc(Cl)cn3)O4)[C@@H]3CC[C@@H]31)n2C[C@@H]1CCCO1 (single isomer, unassigned) [Example 8c] belongs to which category?
Output: LOW

Input: Entry C[C@]1(c2ccc(Cl)cn2)Oc2cccc(N3CCN(Cc4nc5ccc(C(=O)O)cc5n4C[C@@H]4CCO4)[C@H]4CC[C@H]43)c2O1 (single isomer, unassigned) [Example 5d] belongs to which category?
Output: MID

Input: Entry COc1cc2nc(CN3CCN(c4cccc5c4OC(C)(c4ccc(Cl)cn4)O5)[C@H]4CC[C@@H]43)n(C[C@@H]3CCO3)c2cc1C(=O)O (mixture of isomers) belongs to which category?
Output: HIGH

Input: Entry C[C@]1(c2ccc(Cl)cn2)Oc2cccc(N3CCN(Cc4nc5c(Cl)cc(C(=O)O)cc5n4CC4(CC#N)CC4)[C@H]4CC[C@@H]43)c2O1 (single isomer, unassigned) [Example 26a] belongs to which category?
Output: HIGH

Input: Entry C[C@]1(c2ccc(Cl)cc2F)Oc2cccc(N3CCN(Cc4nc5ccc(C(=O)O)cc5n4C[C@@H]4CCO4)[C@H]4CC[C@H]43)c2O1 (single isomer, unassigned) [Example 18c] belongs to which category?
Output: MID

---

- testedOn: human GLP-1R receptor (Homo sapiens, UniProt P43220, L260F)
- Sequence (P43220 24-463 L260F): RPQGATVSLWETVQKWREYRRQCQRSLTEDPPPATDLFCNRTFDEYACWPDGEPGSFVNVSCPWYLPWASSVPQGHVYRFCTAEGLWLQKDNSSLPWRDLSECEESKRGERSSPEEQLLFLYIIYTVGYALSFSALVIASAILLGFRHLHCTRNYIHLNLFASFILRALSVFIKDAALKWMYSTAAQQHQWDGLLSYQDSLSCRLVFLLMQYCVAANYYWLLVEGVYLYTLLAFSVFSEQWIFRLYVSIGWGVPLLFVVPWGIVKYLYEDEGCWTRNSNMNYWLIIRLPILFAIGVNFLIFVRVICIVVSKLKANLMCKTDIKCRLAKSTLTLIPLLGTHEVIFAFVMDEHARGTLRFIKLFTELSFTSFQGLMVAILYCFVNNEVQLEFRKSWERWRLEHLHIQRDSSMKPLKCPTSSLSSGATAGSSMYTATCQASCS
- testName: CHOK1 GLP-1R cAMP Assay (HTRF)
- conditionNotes: CHO-K1 cells stably expressing human GLP-1R (Leu260Phe variant), 20 min at rt
Record form. Attribute: pEC50. Fill in for each entry.
# log scale: pEC50 equals minus log10 of the concentration in mol/L

Input: Give the value of pEC50 reported for the following: C[C@]1(c2ccc(Cl)cn2)Oc2cccc(N3CCN(Cc4nc5ccc(C(=O)O)cc5n4C[C@@H]4CCO4)[C@H]4CC[C@H]43)c2O1 (single isomer, unassigned) [Example 5c]
Output: 6.74

Input: Give the value of pEC50 reported for the following: C[C@]1(c2ccc(Cl)cn2)Oc2cccc(N3CCN(Cc4nc5c(Cl)cc(C(=O)O)cc5n4CC4(CC#N)CC4)[C@H]4CC[C@@H]43)c2O1 (single isomer, unassigned) [Example 26b]
Output: 8.82

Input: Give the value of pEC50 reported for the following: C[C@]1(c2ccc(Cl)cn2)Oc2cccc(N3CCN(Cc4nc5c(Cl)cc(C(=O)O)cc5n4C[C@@H]4CCO4)[C@H]4CC[C@@H]43)c2O1 (single isomer, unassigned) [Example 3c]
Output: 7.96

---

- testedOn: human GLP-1R receptor (Homo sapiens, UniProt P43220, L260F)
- testName: CHOK1 GLP-1R cAMP Assay (HTRF)
- conditionNotes: CHO-K1 cells stably expressing human GLP-1R (Leu260Phe variant), 20 min at rt
Threshold-based label: EC50 under 40 nM gives criterion met, EC50 not under 40 nM gives criterion not met.

Input: A record lists COc1cc(C(=O)O)cc2c1nc(CN1CCN(c3cccc4c3O[C@@](C)(c3ccc(Cl)cn3)O4)[C@H]3CC[C@@H]31)n2CC1(C#N)CC1 (single isomer, unassigned) [Example 25d] . Is its EC50 below 40 nM?
Output: criterion met

Input: A record lists COc1cc(C(=O)O)cc2c1nc(CN1CCN(c3cccc4c3O[C@@](C)(c3ccc(Cl)cn3)O4)[C@H]3CC[C@@H]31)n2CC1(C#N)CC1 (single isomer, unassigned) [Example 25a] . Is its EC50 below 40 nM?
Output: criterion not met

Input: A record lists C[C@]1(c2ccc(Cl)cn2)Oc2cccc(N3CCN(Cc4nc5c(F)cc(C(=O)O)cc5n4CC4(C#N)CC4)[C@H]4CC[C@@H]43)c2O1 (single isomer, unassigned) [Example 24b] . Is its EC50 below 40 nM?
Output: criterion met

Input: A record lists COc1cc(C(=O)O)cc2c1nc(CN1CCN(c3cccc4c3O[C@@](C)(c3ccc(Cl)cn3)O4)[C@H]3CC[C@@H]31)n2CCOC1CC1 (relative stereo) . Is its EC50 below 40 nM?
Output: criterion not met

Input: A record lists COc1cc(C(=O)O)cc2c1nc(CN1CCN(c3cccc4c3O[C@@](C)(c3ccc(Cl)cn3)O4)[C@H]3CC[C@@H]31)n2CC1(C#N)CC1 (single isomer, unassigned) [Example 25c] . Is its EC50 below 40 nM?
Output: criterion met

Input: A record lists COc1cc(C(=O)O)cc2c1nc(CN1CCN(c3cccc4c3O[C@@](C)(c3ccc(Cl)cn3)O4)[C@H]3CC[C@@H]31)n2C[C@@H]1CCCO1 (single isomer, unassigned) [Example 7c] . Is its EC50 below 40 nM?
Output: criterion not met

Input: A record lists C[C@]1(c2ccc(Cl)cn2)Oc2cccc(N3CCN(Cc4nc5c(F)cc(C(=O)O)cc5n4CC4(C#N)CC4)[C@H]4CC[C@@H]43)c2O1 (single isomer, unassigned) [Example 24a] . Is its EC50 below 40 nM?
Output: criterion met
